Assign % inhibition of FRET signal to each entry below.
Molecular target: T1, human tenascin-C rCd4-His-FBG (rat; human, UniProt P05540 207-392, limits assumed)
T1 construct: domain: domains 3 and 4; C-terminal FBG fusion; biotinylated in the ELISA and HTRF screens; also called Hu TNC; human TNC rCd4-His-FBG; not shown: 6His tag
T1 sequence (chain (part 1 of 2)): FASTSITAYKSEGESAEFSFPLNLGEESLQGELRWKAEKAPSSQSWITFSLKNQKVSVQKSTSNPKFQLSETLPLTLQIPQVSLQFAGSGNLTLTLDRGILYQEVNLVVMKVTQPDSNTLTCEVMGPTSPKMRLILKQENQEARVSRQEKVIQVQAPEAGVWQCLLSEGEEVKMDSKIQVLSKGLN
T1 sequence (chain (part 2 of 2)): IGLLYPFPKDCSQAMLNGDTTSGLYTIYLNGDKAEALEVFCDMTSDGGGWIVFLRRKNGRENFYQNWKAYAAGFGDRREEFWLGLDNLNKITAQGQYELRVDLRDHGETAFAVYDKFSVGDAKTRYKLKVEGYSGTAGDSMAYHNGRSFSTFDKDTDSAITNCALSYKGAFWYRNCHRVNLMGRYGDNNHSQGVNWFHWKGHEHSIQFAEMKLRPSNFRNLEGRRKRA
Test: HTRF competition; competitor d2-labelled B12 IgG
Protocol: All samples and reagents were prepared in assay buffer (50 mM NaPO₄, 0.1% BSA, 0.4 M KF, pH 7.0) at 4× the stated concentration. […] Biotinylated rCd4-His-FBG was prepared using EZ-link Sulfo-NHS-LC-Biotin reagent (Thermo Scientific, 21327) the extent of biotinylation was quantified using biotinylation fluorescence quantitation kit (Thermo Scientific, 46610). […] All FRET signals are presented as ΔR, where R=(E665/E620×104) and ΔR=(Rsample−Rbackground fluorescence).

Below are 2 binders. Give each one its % inhibition of FRET signal.
1. 160_01_H4 scFv (scFv, V domains shown, not shown: small tags and cut ends, E. coli supernatant scFv) VH: EVRLVQSGAEVKKPGASVKVSCKVSGYTLTELSMHWVRQAPGKGLEWMGGFDPEDGETIYAQKFQGRVTMTEDTSTDTAYMELSSLRSEDTAVYYCATGRFVWEALTYWGQGTLVTVSS VL: DIQMTQSPASLPTSVGDRVTITCRASQYIQGFLNWYQQKPGKAPRLLIYAASTLQDGVPSRFSGSGYGTDFTLTISSLQPEDFATYYCQQSYSTPWTFGQGTKVEIK
2. 163_02_D11 scFv (scFv, V domains shown, E. coli supernatant scFv; not shown: scFv linker, domain order and the pSANG10 tags (FLAG/His)) VH: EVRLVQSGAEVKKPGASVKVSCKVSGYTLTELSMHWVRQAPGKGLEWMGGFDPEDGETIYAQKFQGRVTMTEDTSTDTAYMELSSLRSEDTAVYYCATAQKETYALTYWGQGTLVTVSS VL: DIQMTQSPASLPTSVGDRVTITCRASQYIQGFLNWYQQKPGKAPRLLIYAASTLQDGVPSRFSGSGYGTDFTLTISSLQPEDFATYYCLHHYKSPWTFGQGTKVEIK

A:
1: ≥ 90%; 2: ≥ 83%
